Provenance of the data: ChEMBL document CHEMBL4118062

Test system: HepG2
Assay remarks: Cytotoxicity against human HepG2 cells assessed as growth inhibition after 72 hrs by MTT assay
Type: functional, cell-based
Test settings: HepG2, 72 h
Reported IC50 by item:

{"Compound": "CC1=C(CCC(=O)OCCCOc2no[n+]([O-])c2S(=O)(=O)c2ccccc2)C(=O)c2c(O)cccc2C1=O", "Target of assay": "HepG2", "IC50, µM": 6.79}
{"Compound": "CC1=C(CC(=O)OCCCCOc2no[n+]([O-])c2S(=O)(=O)c2ccccc2)C(=O)c2c(O)cccc2C1=O", "Target of assay": "HepG2", "IC50, µM": 7.72}
{"Compound": "CC1=C(CC(=O)OCCOc2no[n+]([O-])c2S(=O)(=O)c2ccccc2)C(=O)c2c(O)cccc2C1=O", "Target of assay": "HepG2", "IC50, µM": 6.11}
{"Compound": "CC1=CC(=O)c2c(O)cccc2C1=O", "Target of assay": "HepG2", "IC50, µM": 10.7}
{"Compound": "CC1=C(CC(=O)OCC(C)COc2no[n+]([O-])c2S(=O)(=O)c2ccccc2)C(=O)c2c(O)cccc2C1=O (stereo unspecified)", "Target of assay": "HepG2", "IC50, µM": 3}
{"Compound": "CC1=C(CCCC(=O)OCCOc2no[n+]([O-])c2S(=O)(=O)c2ccccc2)C(=O)c2c(O)cccc2C1=O", "Target of assay": "HepG2", "IC50, µM": 4.16}

----------
System: HepG2
Assay remarks: Cytotoxicity against human HepG2 cells assessed as growth inhibition after 72 hrs by MTT assay
Type: functional, cell-based
Test settings: HepG2, 72 h
Readout name: log10 IC50 (log10 of the value in µM)

{"Compound": "CC1=C(CCC(=O)OCCCCOc2no[n+]([O-])c2S(=O)(=O)c2ccccc2)C(=O)c2c(O)cccc2C1=O", "Readout name": "log10 IC50", "Value measured": 0.52}
{"Compound": "CC1=C(CCC(=O)OCC(C)COc2no[n+]([O-])c2S(=O)(=O)c2ccccc2)C(=O)c2c(O)cccc2C1=O (stereo not drawn)", "Readout name": "log10 IC50", "Value measured": 0.83}
{"Compound": "CC1=C(C(C)CC(=O)OCCCCOc2no[n+]([O-])c2S(=O)(=O)c2ccccc2)C(=O)c2c(O)cccc2C1=O (stereo not drawn)", "Readout name": "log10 IC50", "Value measured": 0.63}
{"Compound": "CC(=O)c1cc2c(o1)C(=O)c1ccccc1C2=O", "Readout name": "log10 IC50", "Value measured": -0.18}
{"Compound": "CC1=C(C(C)CC(=O)OCCCOc2no[n+]([O-])c2S(=O)(=O)c2ccccc2)C(=O)c2c(O)cccc2C1=O (stereo not drawn)", "Readout name": "log10 IC50", "Value measured": 0.64}
{"Compound": "CC1=C(C(C)CC(=O)OCC(C)COc2no[n+]([O-])c2S(=O)(=O)c2ccccc2)C(=O)c2c(O)cccc2C1=O (stereo not drawn)", "Readout name": "log10 IC50", "Value measured": 0.57}
{"Compound": "CC1=C(CC(=O)OCCCOc2no[n+]([O-])c2S(=O)(=O)c2ccccc2)C(=O)c2c(O)cccc2C1=O", "Readout name": "log10 IC50", "Value measured": 0.64}
{"Compound": "CC1=C(CCC(=O)OCCOc2no[n+]([O-])c2S(=O)(=O)c2ccccc2)C(=O)c2c(O)cccc2C1=O", "Readout name": "log10 IC50", "Value measured": 0.47}
